Source: PubChem BioAssay

assay-notes: UWB1.289_BRCA1 ovarian cancer growth, cell-based, BGB or cisplatin combinations (AID 1671459)
run-parameters: UWB1.289 BRCA1 ovarian carcinoma, drug combinations, at 0.5 µM, stronger effect = higher value
Non-standard residues stand in square brackets, D forms with d. Residues, ends and D or L forms follow the SMILES beside them. Dolaproine = CO[C@@H]([C@@H]1CCCN1)[C@@H](C)C(=O)O; Dil = CC[C@H](C)[C@H](NC)[C@@H](CC(=O)O)OC; NMeV = CN[C@H](C(=O)O)C(C)C
# key: entry, value: inhibition
Give the value, in units of %, as a plain number.

The examples below pair each entry with its known result.
compound	value-units	reported-result
CCC1(O)C(=O)OCc2c1cc1n(c2=O)Cc2cc3cc(O)ccc3nc2-1 (centres undefined)	%	89
O=c1ccn(C2CC(O)C(CO)O2)c(=O)[nH]1 (centres undefined)	%	0.57
CC[C@H](C)[C@@H]([C@@H](CC(=O)N1CCC[C@H]1[C@H](OC)[C@@H](C)C(=O)N[C@@H](Cc1ccccc1)C(=O)O)OC)N(C)C(=O)[C@@H](NC(=O)[C@@H](NC)C(C)C)C(C)C (H-[NMeV]V[Dil][Dolaproine]F-OH)	%	26.4
COc1ccccc1S(=O)(=O)Nc1ccc2c(c1)CN(C)C(=O)N2	%	-12

# input // inhibition lookup, key: Cc1ccc(NC(=O)CCCCCC(=O)Nc2ccccc2N)cc1
# output -23.2

# input // inhibition lookup, key: O=C(CCCCCCC(=O)NO)NO
# output -7.22

# input // inhibition lookup, key: Cc1cn(C2C=CC(CO)O2)c(=O)[nH]c1=O (centres undefined)
# output -15.9

# input // inhibition lookup, key: Cc1cc(C)cc(C(=O)NOCCCCCC(=O)NO)c1
# output 33.7

# input // inhibition lookup, key: C=C(C)C1CCC2(C(=O)O)CCC3(C)C(CCC4C5(C)CCC(O)C(C)(C)C5CCC43C)C12 (centres undefined)
# output -1.24

----------
assay-notes: human hepatoma cell viability loss – ATP luminescence, cytotoxicity control for P. falciparum antimalarial project, primary screen (AID 2303);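 further: 0% = DMSO wells and 100% = digitonin-killed cells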
run-parameters: HepG2 viability, 24-48 h, at 10 µM, stronger effect = higher value
value-type: inhibition (%)
Give the value, in units of %, as a plain number.

The examples below pair each entry with its known result.
compound	value-units	inhibition
CCOc1cc(C=Cc2nc3ccccc3c(=O)[nH]2)cc(Cl)c1O	%	25
COc1cc(C=C(C2=NC(=O)CS2)c2nc3cccnc3n2C)ccc1O	%	7

# input // inhibition lookup, key: CN(Cc1cnc2nc(N)nc(N)c2n1)c1ccc(C(=O)N[C@H](CCC(=O)O)C(=O)O)cc1
# output 65

# input // inhibition lookup, key: COc1cc(C=NNc2ccnc3cc(Cl)ccc23)ccc1O
# output 15

----------
assay-notes: galactose survival enhancers in mitochondrial complex I cybrids – cell-based, galactose medium, ATP luminescence, primary screen (AID 1645843);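 further: positive z means more ATP and so rescue of galactose-driven cybrid death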
run-parameters: complex I mutant cybrid cells, 72 h, stronger effect = higher value
# key: entry, value: z-score
Lab note: jot the number down without any unit.

The examples below pair each entry with its known result.
compound	z-score
O=C(O)CNC(=O)Cc1c[nH]c2ccccc12	-0.545
O=C(C1CCCCCC1)N1CCCC(Cn2cc(-c3ccccn3)nn2)C1 (stereo unspecified)	-0.33
Cc1ccc2c(C(=O)N3CCCC3)cc(-c3cnn(C(C)C)c3)nc2c1	-0.36
CN1[C@@H](C[C@H](O)c2ccccc2)CCC[C@H]1CC(=O)c1ccccc1	0.205
COc1ccccc1-c1noc(Cc2ccc3c(c2)OCO3)n1	1.62
O=S(=O)(O)CCN1CCOCC1	0.715

# input // z-score lookup, key: C=CC1=C(C(=O)O)N2C(=O)C(NC(=O)C(=NO)c3csc(N)n3)C2SC1 (stereo unspecified)
# output 0.13

# input // z-score lookup, key: CCCCn1cc(-c2cc(C(=O)N3CCCC3)c3cccc(C)c3n2)cn1
# output 2.59

# input // z-score lookup, key: CNCc1cn(C2CCN(CCC(C)CC(C)(C)C)CC2)nn1 (stereo unspecified)
# output -0.49

# input // z-score lookup, key: O=C1CN(C(=O)c2ccncc2)CCN1Cc1ccc2c(c1)OCO2
# output -0.52

# input // z-score lookup, key: O=C(NCc1ccccn1)c1ccc(Oc2ccccc2)cc1
# output 0.08

----------
assay-notes: galactose survival enhancers in mitochondrial complex I cybrids – cell-based, galactose medium, ATP luminescence, primary screen (AID 1645843);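 further: positive z means more ATP and so rescue of galactose-driven cybrid death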
run-parameters: complex I mutant cybrid cells, 72 h, stronger effect = higher value
value-type: z-score
Lab note: jot the number down without any unit.

# input // z-score lookup, key: CCn1ncc2[nH]c(-c3cc(F)ccc3-n3cccn3)nc21
# output -0.185

# input // z-score lookup, key: O=C(NCCn1ccnc1)c1cc(NCC2CC2)cc(S(=O)(=O)N2CCCC2)c1
# output 1.69

# input // z-score lookup, key: COc1ccccc1CNC1CCc2c(c(C(=O)N3CCc4ccccc4C3)nn2C)C1 (stereo unspecified)
# output 0.07

# input // z-score lookup, key: Cc1cc(C)c(-n2cccn2)c(-c2nc3c(cnn3C(C)C)[nH]2)c1
# output -0.485

# input // z-score lookup, key: Cc1nn(C)c(C)c1-c1ccnc(N2CCC(C(=O)NCc3ccccn3)CC2)n1
# output 1.16

# input // z-score lookup, key: Cn1cc(C(F)(F)F)nc1-c1ccc(OCC(O)CNCCOc2ccc(O)c(C(N)=O)c2)cc1 (stereo unspecified)
# output -0.695

----------
assay-notes: galactose survival enhancers in mitochondrial complex I cybrids – cell-based, galactose medium, ATP luminescence, primary screen (AID 1645843);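 further: positive z means more ATP and so rescue of galactose-driven cybrid death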
run-parameters: complex I mutant cybrid cells, 72 h, stronger effect = higher value
Category | rule: reported z-score within range, see low interval = under -0.2, middle interval = from -0.2 up to 0.2, high interval = 0.2 and over

compound	label-class
COc1ccc(CN2C[C@@H](CN3CCOCC3)C[C@@H](C(=O)NCC3CCCO3)C2)cc1OC (some centres undefined)	high interval
COc1ccc2c(c1)CCC1C2CC[C@@]2(C)C1CC[C@@H]2NCCCCCCN1C(=O)C=CC1=O (some centres undefined)	middle interval
O=C(O)Cc1c[nH]c2ccccc12	high interval
Fc1ccc(CN(C2=NCCN2)c2c(Cl)cccc2Cl)cc1	low interval
CCCC(NC(=O)c1cc(C)oc1C)c1ccccc1 (centres undefined)	low interval
Cc1cccc2c(=O)n(Cc3ccc(Cl)s3)cnc12	high interval

Attention now shifts to the item below.
# input Please report the category associated with Nc1nc2c(nc(Br)n2C2OC3COP(=O)(O)O[C@@H]3C2O)c(=O)[nH]1 (some centres undefined) , nothing else.
# output high interval

----------
assay-notes: viability loss with induced miR-34 in A549 – imaging, A549 dox-inducible miR-34, nuclei and caspase counts, primary screen (AID 1347080)
run-parameters: A549 miR-34 inducible, Hoechst nuclei count, 48 h; stronger effect = lower value; cell number ratio, induced over uninduced
value-type: fold change
Lab note: jot the number down without any unit.

The examples below pair each entry with its known result.
molecule	value-type	reported-result
CC1(C)S[C@H]2C(NC(=O)C(NC(=O)N3CCN(S(C)(=O)=O)C3=O)c3ccccc3)C(=O)N2C1C(=O)O (stereo not given in full)	fold change	0.882
COc1ccc(/C=C/c2nc(NCCCN(C)C)c3ccccc3n2)cc1	fold change	1.02
Cc1[nH]c2ccccc2c1CCNC(=O)c1cccs1	fold change	0.913

Turning now to a further molecule:
# input // fold change lookup, key: CCCCC[C@H](O)C/C=C1/C(=O)C=C[C@@H]1C/C=C\CCCC(=O)O
# output 0.887

----------
assay-notes: galactose survival enhancers in mitochondrial complex I cybrids – cell-based, galactose medium, ATP luminescence, primary screen (AID 1645843);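 further: positive z means more ATP and so rescue of galactose-driven cybrid death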
run-parameters: complex I mutant cybrid cells, 72 h, stronger effect = higher value
Tick yes if z-score is -0.4 or greater. Tick no if z-score is less than -0.4.

compound	label-class
COc1cc(C(O)CO)ccc1OS(=O)(=O)O (stereo not drawn)	yes

# input Test whether the compound CCc1n[nH]c2c1CN(C(=O)c1cc(C)nc3ccc(F)cc13)CC2 records z-score of -0.4 or higher.
# output no

# input Test whether the compound c1nc(N2CCOCC2)c2[nH]cnc2n1 records z-score of -0.4 or higher.
# output yes

----------
assay-notes: MELAS cybrid and Rieske KO viability enhancers – cell-based, MELAS cybrids, Rieske KO mouse fibroblasts, CellTiter-Glo, primary screen (AID 1508586);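 further: z relative to plate mean and SD of compound and empty wells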
run-parameters: Rieske KO mouse fibroblast survival, low glucose, CellTiter-Glo 72 h
value-type: z-score

The examples below pair each entry with its known result.
compound	z-score
COc1cccc2c1C(=O)c1c(O)c3c(c(O)c1C2=O)C[C@@](O)(C(=O)CO)C[C@@H]3O[C@@H]1C[C@H](N)[C@@H](O)[C@H](C)O1	-1.72
O=C(Nc1ccc(Oc2ccc3nc(NC(=O)c4ccco4)[nH]c3c2)cc1)Nc1cc(C(F)(F)F)ccc1F	6.9
CC(CN1CC(=O)NC(=O)C1)N1CC(=O)NC(=O)C1 (stereo not given)	0.325
CCOc1ccccc1OC(c1ccccc1)[C@H]1CNCCO1 (stereo not given in full)	-0.166
Cc1nsc(NC(=O)NC2Cc3ccccc3C2)n1	-0.355

# input // z-score lookup, key: Cc1nc(C#Cc2ccnc(Cl)c2)c(C)n1-c1ccc(OC(F)(F)F)cc1
# output 0.0252

# input // z-score lookup, key: O=C(O)C(Cc1ccccc1[N+](=O)[O-])=NNC1=NC(c2ccc(Cl)c(Cl)c2)CS1 (stereo not given)
# output 0.221

# input // z-score lookup, key: Cc1nsc(NC(=O)NC2CCc3ccccc3C2)n1 (stereo not given)
# output -0.339

# input // z-score lookup, key: C#CCNC1CCc2ccccc21 (stereo not given)
# output -0.00726

# input // z-score lookup, key: O=C(O)c1cc(I)ccc1NC(=O)C(Cc1ccccc1)NCc1ccccc1 (stereo not given)
# output 1.09
